Source of measurements: ChEMBL document CHEMBL4825770

Test system: NCI-H23
procedure_details: Cytotoxicity against human NCI-H23 cells harboring KRASG12C mutant assessed as reduction in cell viability measured after 72 hrs in presence of compound 1 by CellTiter-Glo luciferase-based ATP detection assay
Assay type: functional
stated_conditions: NCI-H23, 72 h
endpoint: IC50 (nM)

# molecule, endpoint, result
records = [
    ("C=CC(=O)N1CCN(c2nc(=O)n(-c3c(C)ccnc3C(C)C)c3nc(-c4c(O)cccc4F)c(F)cc23)[C@@H](C)C1 [SOTORASIB]", "IC50", 1500),
]

---

Test system: NCI-H1792
procedure_details: Cytotoxicity against human NCI-H1792 cells harboring KRASG12C mutant assessed as reduction in cell viability measured after 72 hrs in presence of compound 1 by CellTiter-Glo luciferase-based ATP detection assay
Format: functional
stated_conditions: NCI-H1792, 72 h

# smi, IC50, nM
records = [
    ("C=CC(=O)N1CCN(c2nc(=O)n(-c3c(C)ccnc3C(C)C)c3nc(-c4c(O)cccc4F)c(F)cc23)[C@@H](C)C1", 3000),
]
